- experiment_summary: protein stability index of a GFP-peptide fusion (yeast GPS) (PSI 1-4); higher = more stable; sorted into four equal gates, so the index is relative within each strain
- condition_parameters: ubr1∆
Examples of sequences with documented protein stability index follow.

>  <query_sequence>
TTVYRYSAAKKIPDTYT [YAR002W/NUP60]

>  <protein stability index>
1.45

$$$$
>  <query_sequence>
LHVLVAHKLKKSLDSIP [FAS2]

>  <protein stability index>
1.68

$$$$
>  <query_sequence>
TFEQFKDTIVKEAEDKT [RPC37]

>  <protein stability index>
2.43

$$$$
>  <query_sequence>
ISTSDVTRIINSSEIQS [RPL4A]

>  <protein stability index>
2.58

$$$$
>  <query_sequence>
NSLAVRGKDCTVVISQK [SCL1]

>  <protein stability index>
2.72

$$$$
>  <query_sequence>
RGAWGKPHGLAARVDIG [RPL10]

>  <protein stability index>
2.35

$$$$
>  <query_sequence>
NPVALEQKLVDLLKFEN [BRR2]

>  <protein stability index>
2.47

$$$$
>  <query_sequence>
KGSSLASAASEAIRDPK [SSN8]

>  <protein stability index>
2.99

$$$$
>  <query_sequence>
TEVIIRATRTQDVLGEN [RPS3]

>  <protein stability index>
3.35

$$$$
>  <query_sequence>
SKTGSVDTLHNKEGTLE [SSN2]

>  <protein stability index>
3.4

$$$$
>  <query_sequence>
NLDSSITQDGKFAYKID [YMR129W/POM152]

>  <protein stability index>
2.71

$$$$
>  <query_sequence>
MIQEVIVEEDLEPFEAS [FAS2]

>  <protein stability index>
3.47

$$$$
>  <query_sequence>
LIIRCRVVRPKSLDAET [RPO21]

>  <protein stability index>
2.51

$$$$
>  <query_sequence>
KKNRDKKIFGTGKRLAK [RPS24A]

>  <protein stability index>
3.26

$$$$
>  <query_sequence>
EDCDLVIMALMLMSKIG [POP5]

>  <protein stability index>
2.32

$$$$
>  <query_sequence>
KNDSAEVRQETQPKAEA [NUT1]

>  <protein stability index>
3.38

$$$$
>  <query_sequence>
KPPSSAFNFSFNTSRNV [YAR002W/NUP60]

>  <protein stability index>
3.05

$$$$
>  <query_sequence>
LNRIINHMLIDSLNQLE [RGR1]

>  <protein stability index>
2.68

$$$$
>  <query_sequence>
VVDANGCVNSLISGPRN [YMR129W/POM152]

>  <protein stability index>
2.66

$$$$
>  <query_sequence>
EAMMLKEEGLQQFNLHE [MED1]

>  <protein stability index>
2.61

$$$$
>  <query_sequence>
LRFGEGASGEERLMSRP [PUP2]

>  <protein stability index>
3.23

$$$$
>  <query_sequence>
TSLVANENDKIYLLFQS [YDL116W/NUP84]

>  <protein stability index>
2.79

$$$$
>  <query_sequence>
LLKKIIFEKELMYQIKK [SRB4]

>  <protein stability index>
2.17

$$$$
>  <query_sequence>
LLKSNDPLLSLYNFLHK [RGR1]

>  <protein stability index>
2.55

$$$$
>  <query_sequence>
QTQAIAQQQQLSNYPQQ [YGR119C/NUP57]

>  <protein stability index>
2.97

$$$$
>  <query_sequence>
SFTDILKSAIRDEIAKN [RPN12]

>  <protein stability index>
2.89

$$$$
>  <query_sequence>
YSIFLENENILIKAKNF [SMC1]

>  <protein stability index>
1.14

$$$$
>  <query_sequence>
LDTRKELWRKEQKLQTV [SMC3]

>  <protein stability index>
2.99

$$$$
>  <query_sequence>
ATLYIPKALRFDRLVAG [FAS2]

>  <protein stability index>
1.44

$$$$
>  <query_sequence>
AVDLEHHDYRSYYGIVC [RRP6]

>  <protein stability index>
2.97

$$$$
>  <query_sequence>
SFKLCTLLIAIRGSNRD [YML103C/NUP188]

>  <protein stability index>
2.41

$$$$
>  <query_sequence>
SGLNRAISTGNWSLKRF [RET1]

>  <protein stability index>
2.41

$$$$
>  <query_sequence>
HELSRAELEELEEFEFK [SMD2]

>  <protein stability index>
3.45

$$$$
>  <query_sequence>
NLLPKKSAKATKASQEL [HTA1]

>  <protein stability index>
3.03

$$$$
>  <query_sequence>
INMADRSLGLQQVVCIF [POP6]

>  <protein stability index>
1.06

$$$$
>  <query_sequence>
DDGDDEDLLECLDRCKE [MTR3]

>  <protein stability index>
2.77

$$$$
>  <query_sequence>
ARAPKYASKAVPHYNRL [RPL25]

>  <protein stability index>
2.98

$$$$
>  <query_sequence>
NSTASSSNISPEQVYSL [ARP7]

>  <protein stability index>
2.88

$$$$
>  <query_sequence>
YATKDGVAHLLNRFNFQ [QCR2]

>  <protein stability index>
2.6

$$$$
>  <query_sequence>
KAKSHFTNIISRNKALE [YJL039C/NUP192]

>  <protein stability index>
2.68

$$$$
>  <query_sequence>
SKNRIIVEADEKKGIVQ [RET1]

>  <protein stability index>
1.59

$$$$
>  <query_sequence>
SLSFGSGSAGANPAGAS [YJL041W/NSP1]

>  <protein stability index>
3.1

$$$$
>  <query_sequence>
GELRDYIEDFLLVIGGN [YJR042W/NUP85]

>  <protein stability index>
1.74

$$$$
>  <query_sequence>
KFSLPFEQKGSQTTTND [YLR335W/NUP2]

>  <protein stability index>
3.09

$$$$
>  <query_sequence>
ANLRVLNSYWVNQDSTY [RPL15A]

>  <protein stability index>
2.37

$$$$
>  <query_sequence>
RAVLTPLITRHCYPRQL [RRP46]

>  <protein stability index>
2.39

$$$$
>  <query_sequence>
NGTTVWGTLQSVSPQMN [SMD1]

>  <protein stability index>
2.96

$$$$
>  <query_sequence>
QLPSKFTCSCNSLTVDG [RPN14]

>  <protein stability index>
2.17

$$$$
>  <query_sequence>
KGHKFNNTKAGRRKTWK [RPL15A]

>  <protein stability index>
3.1

$$$$
>  <query_sequence>
KRVTIQKKDIKLARRLR [HHT1]

>  <protein stability index>
3.05

$$$$
>  <query_sequence>
SGNGSNPNTNTNSNNTP [PGD1]

>  <protein stability index>
2.87

$$$$
>  <query_sequence>
QILIFAADTSIVEQDKS [YJL039C/NUP192]

>  <protein stability index>
2.54

$$$$
>  <query_sequence>
VVVIDGKGHLVGRLASV [RPL16A]

>  <protein stability index>
1.97

$$$$
>  <query_sequence>
FLFQNINFERIDEVFSW [GRR1]

>  <protein stability index>
2.28

$$$$
>  <query_sequence>
NDEVNEDEEDDNISSFH [YCG1]

>  <protein stability index>
3.33

$$$$
>  <query_sequence>
YDPSIGIFGMDFYVVMN [RPL11A]

>  <protein stability index>
2.55

$$$$
>  <query_sequence>
EIKKVTQIVAKFPETSY [SIN4]

>  <protein stability index>
2.57

$$$$
>  <query_sequence>
NEKIEKRSDLTGANSIY [UBP6]

>  <protein stability index>
3.15

$$$$
>  <query_sequence>
MFAYAKEHEPCIIFMDE [RPT4]

>  <protein stability index>
2.4

$$$$
